Test: NCI Yeast Anticancer Drug Screen. Data for the mlh1 rad18 strain (AID 175)
Settings: S. cerevisiae mlh1 rad18 strain growth inhibition; at 5.0 µM (retest, dose inferred, filed as 0.5)
Compounds without any hit were thinned out: in the full panel of roughly 79,000, 15% have a hit. Active and inactive are the calls of the source. Rule as the data show it: active = growth inhibition above about 70%; inactive = the rest.
Permitted responses: y = active, n = inactive

Asked: Per the assay record, what outcome was assigned to O=c1c2cc(Cl)ccc2[nH]c2cc(O)cc(O)c12 ?
Given back: n

Asked: Per the assay record, what outcome was assigned to O=[N+]([O-])c1ccc2nc(Nc3ccccc3)c(Nc3ccccc3)nc2c1 ?
Given back: n

Asked: Per the assay record, what outcome was assigned to CCOC(=O)c1c(O)c(C)c(=O)n2c1[nH]c1cc(C)c(C)cc12 ?
Given back: n

Asked: Per the assay record, what outcome was assigned to COc1ccc2c(c1)CCc1c(CO)c(COC(=O)NC(C)C)n(C)c1-2 ?
Given back: n

Asked: Per the assay record, what outcome was assigned to CCCCC(=O)c1nc(N(CC2CCCCC2)C(=O)NC)sc1N ?
Given back: n

Asked: Per the assay record, what outcome was assigned to CCC12C=CCN3CCC4(c5cc(C(c6ccccn6)c6cc7ccccc7n6C)c(OC)cc5N(C)C4C(O)(C(=O)OC)C1OC(C)=O)C32 (stereo not given) ?
Given back: n

Asked: Per the assay record, what outcome was assigned to CCOc1ccc(C=Nc2ccc(/C=C(\C)C(=O)OCCC(C)C)cc2)cc1 ?
Given back: y

Asked: Per the assay record, what outcome was assigned to COc1ccc(CNc2nc3cc(C(F)(F)F)ccc3nc2C)cc1OC ?
Given back: n

Asked: Per the assay record, what outcome was assigned to CC1(C)[C@H]2CC[C@]1(C)[C@H](OC(=O)NNC(=O)O[C@@H]1C[C@@H]3CC[C@@]1(C)C3(C)C)C2 ?
Given back: n

Asked: Per the assay record, what outcome was assigned to Cc1ccccc1-n1c(N)c(-c2nc3ccccc3[nH]2)sc1=S ?
Given back: n

Asked: Per the assay record, what outcome was assigned to CCCCC(CC)(COC(C)=O)COC(C)=O ?
Given back: n

Asked: Per the assay record, what outcome was assigned to CN(Cc1cnc2nc(N)nc(N)c2n1)c1ccc(C(=O)NC(CCC(=O)O)C(=O)O)c(Cl)c1Cl (stereo not given) ?
Given back: n

Asked: Per the assay record, what outcome was assigned to OC(C1CCCCN1)C1CC(c2ccccc2)Nc2c(Cl)cc(Cl)cc21 (stereo not given) ?
Given back: n

Asked: Per the assay record, what outcome was assigned to Cc1nc2c(Cl)cccc2c2ccccc12 ?
Given back: n

Asked: Per the assay record, what outcome was assigned to COc1ccc(C(=O)C(Br)CS(=O)(=O)c2ccc(C)cc2)cc1 (stereo not given) ?
Given back: n

Asked: Per the assay record, what outcome was assigned to O=[N+]([O-])c1ccc(CCCl)c(CCl)c1 ?
Given back: n

Asked: Per the assay record, what outcome was assigned to CCOC(=O)C(NNc1ccccc1)C(c1ccccc1)[P+](c1ccccc1)(c1ccccc1)c1ccccc1 (stereo not given) ?
Given back: y

Asked: Per the assay record, what outcome was assigned to C=CNC(=O)Oc1ccccc1 ?
Given back: n

Asked: Per the assay record, what outcome was assigned to CCOC(=O)Cc1cc(=O)oc2c(CN3CCN(c4ccc(C)cc4)CC3)c(O)ccc12 ?
Given back: n

Asked: Per the assay record, what outcome was assigned to CCCCCCCCCCCCCCCC(=O)N(CCCN(CC)CC)C(C)CCCN(CC)CC (stereo not given) ?
Given back: y

Asked: Per the assay record, what outcome was assigned to O=C(/C=C/c1ccccc1)c1ccc(NCc2nc3ccccc3[nH]2)cc1 ?
Given back: n

Asked: Per the assay record, what outcome was assigned to CCN(CC)CCOc1ccc(C=C2c3ccccc3-c3ccccc32)cc1 ?
Given back: y

Asked: Per the assay record, what outcome was assigned to O=C(Oc1ccc(Cl)cc1)Oc1ccc(Cl)cc1 ?
Given back: n

Asked: Per the assay record, what outcome was assigned to CC1(C)OC2C(CO)OC(n3ncc(=S)[nH]c3=O)C2O1 (stereo not given) ?
Given back: n

Asked: Per the assay record, what outcome was assigned to Cc1ccccc1C(CC(=O)O)C(C)c1ccccc1 (stereo not given) ?
Given back: n

Asked: Per the assay record, what outcome was assigned to O=S1(=O)CCN(c2ccccc2CC(c2c[nH]c3ccccc23)c2c[nH]c3ccccc23)CC1 ?
Given back: n

Asked: Per the assay record, what outcome was assigned to CC1=C(C2CO2)C(=O)C(C)=C(C2CO2)C1=O (stereo not given) ?
Given back: n

Asked: Per the assay record, what outcome was assigned to C=CCCCCn1c2ccccc2c2c(C)c3c[n+](C)ccc3c(C)c21 ?
Given back: y

Asked: Per the assay record, what outcome was assigned to O=[N+]([O-])/C=C/C=C/c1ccco1 ?
Given back: n

Asked: Per the assay record, what outcome was assigned to O=C(O)c1ccccc1-c1c2cc(I)c(=O)c(I)c-2oc2c(I)c(O)c(I)cc12 ?
Given back: n

Asked: Per the assay record, what outcome was assigned to O=C(O)c1ccc(NCc2c(O)ccc3ccccc23)cc1 ?
Given back: n

Asked: Per the assay record, what outcome was assigned to COC(=O)C1(COCc2ccccc2)CCCC2OC21 (stereo not given) ?
Given back: n

Asked: Per the assay record, what outcome was assigned to CCCCCOC(=S)SSSC(=S)OCCCCC ?
Given back: n

Asked: Per the assay record, what outcome was assigned to CCN(CC)CCOc1cccc2c1C(=O)c1c(O)cccc1C2=O ?
Given back: n

Asked: Per the assay record, what outcome was assigned to CC(=O)OC(C)(C)N=Nc1ccc(Br)cc1 ?
Given back: n

Asked: Per the assay record, what outcome was assigned to CCN(CC)CC(O)CNc1cc(C)nc(/N=C(\N)Nc2ccc(Cl)c(Cl)c2)n1 (stereo not given) ?
Given back: n

Asked: Per the assay record, what outcome was assigned to CCCCCCCCCCCCCCCCOS(=O)(=O)O ?
Given back: n

Asked: Per the assay record, what outcome was assigned to Cc1ccc(-c2c(C#N)c(-c3ccc(Cl)cc3)c(C#N)c(=O)n2NS(=O)(=O)c2ccccc2)cc1 ?
Given back: n

Asked: Per the assay record, what outcome was assigned to CC(=O)OCC1CC2OC2CC1C (stereo not given) ?
Given back: n

Asked: Per the assay record, what outcome was assigned to O=C(CC(C(=O)O)c1c[nH]c2ccccc12)c1ccccc1 (stereo not given) ?
Given back: n

Asked: Per the assay record, what outcome was assigned to CCOC(=O)c1cnn(-c2ccccc2)c1N ?
Given back: n

Asked: Per the assay record, what outcome was assigned to CC(=O)N(/C=C\c1sc2ccccc2[n+]1C)c1ccccc1 ?
Given back: n

Asked: Per the assay record, what outcome was assigned to Nc1ccc(C(=O)NN2C(=O)C(Cl)C2c2cc(Br)cc(Br)c2O)cc1 (stereo not given) ?
Given back: n

Asked: Per the assay record, what outcome was assigned to CCN(CC)CCNC(=O)c1ccc2c(c1O)C(=O)c1ccccc1C2=O ?
Given back: n

Asked: Per the assay record, what outcome was assigned to [N-]=[N+]=Nc1c(-c2ccccc2)c(Cl)nc2ccccc12 ?
Given back: n
